Biological target: Cruzipain (Trypanosoma cruzi)
Test: Inhibitory activity against Trypanosoma cruzi cathepsin L-like protease (cruzain) was determined using purified recombinant protein
assay.metric: IC50

Some solved cases for reference:
CC/C(=N\N=C(\N)S)c1ccc(Cl)cc1Cl | > 10 µM
COc1ccccc1-c1ccc(/C=N/N=C(/N)S)o1 | 0.28 µM

Recorded IC50 of `Cn1nc(C(F)(F)F)cc1-c1ccc(/C=N/N=C(/N)S)s1` , please.
7 µM

Would you mind doing `N/C(S)=N/N=C/c1ccc(-c2cccc(Cl)c2)o1` as well?
0.14 µM

Would you mind doing `S=C(NCc1ccco1)N1CCC(c2cccc(Br)c2)=N1` as well?
> 10 µM

---

Molecular target: Cruzipain (Trypanosoma cruzi, UniProt P25779)
Sequence (P25779 whole entry): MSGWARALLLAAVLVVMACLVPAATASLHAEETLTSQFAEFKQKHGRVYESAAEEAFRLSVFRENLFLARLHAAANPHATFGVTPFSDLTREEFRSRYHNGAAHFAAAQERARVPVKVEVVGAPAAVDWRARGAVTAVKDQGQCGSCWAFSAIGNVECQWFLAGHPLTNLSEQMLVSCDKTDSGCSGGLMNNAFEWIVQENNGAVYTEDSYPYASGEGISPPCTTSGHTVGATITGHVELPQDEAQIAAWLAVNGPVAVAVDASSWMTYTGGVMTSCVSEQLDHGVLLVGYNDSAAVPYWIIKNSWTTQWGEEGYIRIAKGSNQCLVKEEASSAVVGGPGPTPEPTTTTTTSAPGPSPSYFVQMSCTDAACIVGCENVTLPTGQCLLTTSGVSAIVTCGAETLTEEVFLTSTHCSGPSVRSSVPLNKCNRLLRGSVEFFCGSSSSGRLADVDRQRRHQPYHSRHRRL
Experiment: Inhibitory activity against Trypanosoma cruzi cathepsin L-like protease (cruzain) was determined using purified recombinant protein
Entries annotated with measured IC50
Note: unit nM is implicit; provide only the numeric part.

Some solved cases for reference:
N/C(S)=N/N=C/c1cc(Cl)cc(Cl)c1 | 560
CC/C(=N\N=C(/S)Nc1ccc(C(F)(F)F)cc1)c1cccc(Br)c1 (stereo in doubt; 5c) | 1600

Field: IC50 (Cruzipain (Trypanosoma cruzi, UniProt P25779)). Entry: `NC(=S)N1CCC(c2cccc(Cl)c2)=N1`
270

---

Target: UniProtKB P25779
Experiment: Inhibitory activity against Trypanosoma cruzi cathepsin L-like protease (cruzain) was determined using purified recombinant protein
pIC50: −log10 of the molar value.
assay.metric: pIC50

C/C(=N\N=C(\N)S)c1ccccc1Cl | < 5.00
NC(=S)N1CCC(c2ccc(Cl)c(Cl)c2)=N1 | 7.22
COc1ccc2ccccc2c1/C=N/N=C(/N)S | 6.25
C/C(=N\NC(N)=O)c1ccc(Cl)c(Cl)c1 | < 5.00
CC/C(=N\NC(N)=O)c1cc(C(F)(F)F)cc(C(F)(F)F)c1 | < 5.00
CC/C(=N\NC(N)=O)c1cccc(Br)c1 | < 5.00

Recorded pIC50 of `S=C(NCCN1CCOCC1)N1CCC(c2cccc(Br)c2)=N1` , please.
< 5.00

Would you mind doing `NC(=S)N/N=C/c1ccc(-c2ccc(Br)cc2)o1` as well?
6.55

Would you mind doing `C/C(=N\NC(N)=O)c1cccc(C(F)(F)F)c1` as well?
< 5.00

Would you mind doing `CC/C(=N\N=C(/S)NCCN1CCNCC1)c1cccc(Br)c1` as well?
< 5.00

Would you mind doing `N=C(S)N1CCC(c2cccc(C(F)(F)F)c2)=N1` as well?
7.10

Would you mind doing `CC/N=C(\S)N1CCC(c2cccc(Br)c2)=N1` as well?
< 5.00

---

Entries annotated with measured pIC50
Biological target: Cruzipain (Trypanosoma cruzi)
Assay: Inhibitory activity against Trypanosoma cruzi cathepsin L-like protease (cruzain) was determined using purified recombinant protein
pIC50 field: float, defined as -log10 of concentration (mol/L).

N=C(S)N/N=C/c1cccc(C(F)(F)F)c1 | 6.32
FC(F)(F)c1cccc(NC(=S)N2CCC(c3cccc(Cl)c3)=N2)c1 | 5.77
CC/C(=N\N=C(\N)S)c1cccc(Cl)c1 | 6.66
N/C(S)=N/N=C/c1cccc(Br)c1 | 5.89
CC/C(=N\N=C(\N)S)c1ccc(Cl)c(Cl)c1 | 7.70

Now look at this one.
Recorded pIC50 of `C/C(=N\N=C(\N)S)c1ccccc1Br` , please.
5.41
